- system.name: T1, huMICA*004 alpha 3-his (human)
- T1 construct: whole construct entry: GS, alpha 3 domain, GNS, His8; also called MICA004.His; MICA*004 alpha3 construct
- T1 chain: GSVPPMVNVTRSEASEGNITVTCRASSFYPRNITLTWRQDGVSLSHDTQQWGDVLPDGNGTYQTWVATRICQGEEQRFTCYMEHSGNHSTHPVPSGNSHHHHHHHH
- assay.procedure: SPR, Biacore 8K, antibody on Protein A chip
Can you tell me Kd for the items I'm about to list?
Give bare numbers, in nM.

// for each binder in input: emit Kd
1. 13A9v5 (antibody, IgG1, V domains shown, humanized variant of 13A9) VH: EVQLVQSGAEVKKPGSSVKVSCKASGYAFTNYLIEWVRQAPGQGLEWIGAINPGSGATNYNEKFKDRATLTADKSTNTAYMELSSLRSEDTAVYFCARFLGNYFDNWGQGTLVTVSS VL: DIQMTQSPSSLSASVGDRVTITCRASGNIHSYLAWYQQKPGKAPKLLIYYAETLADGVPSRFSGSGSGTDFTLTISSLQPEDFATYYCQQFWTTPYTFGQGTKVEIK
2. 1D5v17 (antibody, IgG1, V domains shown, humanized variant of 1D5) VH: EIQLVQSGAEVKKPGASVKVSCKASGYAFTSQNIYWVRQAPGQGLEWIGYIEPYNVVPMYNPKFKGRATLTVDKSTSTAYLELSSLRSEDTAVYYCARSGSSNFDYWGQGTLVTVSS VL: DIQMTQSPSSLSASVGDRVTITCSASSSISSHYLHWYQQKPGKSPKLLIYRTSNLASGVPSRFSGSGSGTDYTLTISSLQPEDFATYYCQQGSSLPLTFGQGTKVEIK
3. 1D5v27 (antibody, IgG1, V domains shown, humanized variant of 1D5) VH: EIQLVQSGAEVKKPGASVKVSCKASGYAFTSQNIYWVRQAPGQGLEWIGYIEPYNVVPAYNPKFKGRATLTVDKSTSTAYLELSSLRSEDTAVYYCARSGSSNFDYWGQGTLVTVSS VL: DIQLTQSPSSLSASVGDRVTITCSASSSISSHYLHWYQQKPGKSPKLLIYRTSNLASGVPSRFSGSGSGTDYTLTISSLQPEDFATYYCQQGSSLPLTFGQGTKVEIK
4. 1D5v10 (antibody, IgG1, V domains shown, humanized variant of 1D5) VH: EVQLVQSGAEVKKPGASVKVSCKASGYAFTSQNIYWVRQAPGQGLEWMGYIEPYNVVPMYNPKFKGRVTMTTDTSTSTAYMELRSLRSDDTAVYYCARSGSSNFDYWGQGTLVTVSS VL: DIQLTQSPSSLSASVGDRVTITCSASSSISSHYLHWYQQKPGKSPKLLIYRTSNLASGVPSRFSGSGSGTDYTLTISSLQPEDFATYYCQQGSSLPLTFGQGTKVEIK

Result:
[5.52, 0.68, 1.52, 1.08]

This collection of values is drawn from patent US20200055939A1.
